Tested on: Leishmania amazonensis
Assay: Antileishmanial activity against amastigote stage of Leishmania amazonensis WHOM/BR/75/JOSEFA infected in BALB/c mouse peritoneal macrophages after 72 hrs by Geimsa staining-based light microscopy
Format: functional, organism-based
pIC50: −log10 of the molar value.
Readout type: pIC50

Using the record for "COc1ccc2nc(NCCO)c(S(C)(=O)=O)nc2c1" , report its pIC50.
4.76

1 = C[S+]([O-])c1nc2ccc(Cl)cc2nc1Cl (stereo not given)
2 = CS(=O)(=O)c1nc2ccc(Cl)cc2nc1Cl
3 = COc1ccc2nc(NC3CCCCC3)c([S+](C)[O-])nc2c1 (stereo not given)
4 = CCCCNc1nc2ccc(OC)cc2nc1S(C)(=O)=O
Sort these compounds on pIC50 so the largest reading comes first. Give the order by naming the labels one after another as requested.
1, 2, 3, 4
(1: 5.82, 2: 5.51, 3: 5.14, 4: 4.89)

###

Experiment: Selectivity ratio of CC50 for monkey LLC-MK2 cells to IC50 for epimastigote stage of epimastigote stage of Trypanosoma cruzi Y
Format: ADME, cell-based
Conditions: read-out: Ratio CC50/IC50
Readout type: selectivity ratio
Reply: number alone, nothing else.

Previously resolved entries follow.
Using the record for "CS/C(=C/[N+](=O)[O-])NCCCO" , report its selectivity ratio.
9.6

Using the record for "COc1ccc2nc(NCC(C)C)c(S(C)(=O)=O)nc2c1" , report its selectivity ratio.
22.6

Using the record for "COc1ccc2nc(S(C)(=O)=O)c(Cl)nc2c1" , report its selectivity ratio.
7.5

More entries:
Using the record for "CS(=O)(=O)c1nc2ccccc2nc1NCCO" , report its selectivity ratio.
4.4

Using the record for "COc1ccc2nc(SC)c(NCC(C)C)nc2c1" , report its selectivity ratio.
0.7

Using the record for "Oc1ccc(-c2nc3ccccc3nc2-c2ccc(OCCN3CCCCC3)cc2)cc1" , report its selectivity ratio.
1

Using the record for "CSc1nc2ccccc2nc1Cl" , report its selectivity ratio.
8.1

Using the record for "CS(=O)(=O)c1nc2ccc(Br)cc2nc1Cl" , report its selectivity ratio.
49.6

Using the record for "Clc1cc2nc(-c3ccccc3)c(-c3ccccc3)nc2cc1Cl" , report its selectivity ratio.
8.7

###

Experiment: Selectivity ratio of CC50 for monkey LLC-MK2 cells to IC50 for epimastigote stage of epimastigote stage of Trypanosoma cruzi Y
Readout type: selectivity ratio
Reply: number alone, nothing else.

Previously resolved entries follow.
Using the record for "COc1ccc(-c2nc3ccc(Cl)cc3nc2-c2ccccc2)cc1" , report its selectivity ratio.
6.5

Using the record for "CS/C(=C/[N+](=O)[O-])NCCCO" , report its selectivity ratio.
9.6

Using the record for "CCCCNc1nc2cc(OC)ccc2nc1S(C)(=O)=O" , report its selectivity ratio.
1.6

Using the record for "Oc1ccc(-c2nc3ccccc3nc2-c2ccc(OCCN3CCCCC3)cc2)cc1" , report its selectivity ratio.
1

Using the record for "CS(=O)(=O)c1nc2ccccc2nc1Cl" , report its selectivity ratio.
70.1

More entries:
Using the record for "COc1ccc2nc(NCC(C)C)c(S(C)(=O)=O)nc2c1" , report its selectivity ratio.
22.6

Using the record for "CCCCNc1nc2ccccc2nc1SC" , report its selectivity ratio.
1.2

Using the record for "COc1ccc2nc(S(C)(=O)=O)c(NCCO)nc2c1" , report its selectivity ratio.
2.6

Using the record for "COc1ccc(-c2nc3ccccc3nc2-c2ccc(OC)cc2)cc1" , report its selectivity ratio.
9

###

Measured selectivity ratio by item
Assay: Selectivity ratio of CC50 to IC50 for promastigote stage of Leishmania amazonensis WHOM/BR/75/JOSEFA
Set-up: reference not given here
Reply: number alone, nothing else.

Previously resolved entries follow.
Using the record for "COc1ccc2nc(-c3ccccc3)c(S(C)(=O)=O)nc2c1" , report its selectivity ratio.
4.1

Using the record for "CS/C(=C/[N+](=O)[O-])NCCCCO" , report its selectivity ratio.
11.1

More entries:
Using the record for "CCCCNc1nc2ccc(OC)cc2nc1SC" , report its selectivity ratio.
2.1

Using the record for "COc1ccc2nc(SC)c(NCCC(C)C)nc2c1" , report its selectivity ratio.
3.3

Using the record for "CCCCNc1nc2cc(Cl)ccc2nc1S(C)(=O)=O" , report its selectivity ratio.
50.6

Using the record for "CSc1nc2ccc(Br)cc2nc1Cl" , report its selectivity ratio.
7.4

Using the record for "CCCCNc1nc2cc(OC)ccc2nc1S(C)(=O)=O" , report its selectivity ratio.
5.5

Using the record for "Oc1ccc(-c2nc3ccccc3nc2-c2ccc(OCCN3CCCCC3)cc2)cc1" , report its selectivity ratio.
8.2

Using the record for "COc1ccc2nc(S(C)(=O)=O)c(NCC(C)C)nc2c1" , report its selectivity ratio.
3.6

Using the record for "CCCCNc1nc2ccc(OC)cc2nc1NCc1ccccc1" , report its selectivity ratio.
3.6

###

Measured selectivity ratio by item
Assay: Selectivity ratio of CC50 for monkey LLC-MK2 cells to IC50 for epimastigote stage of epimastigote stage of Trypanosoma cruzi Y
Assay type: ADME, cell-based
Details: read-out: Ratio CC50/IC50
Reply: number alone, nothing else.

Using the record for "CCCCNc1nc2ccc(OC)cc2nc1SC" , report its selectivity ratio.
3.1

Using the record for "COc1ccc(-c2nc3ccc(Cl)cc3nc2-c2ccccc2)cc1" , report its selectivity ratio.
6.5

Using the record for "CSc1nc2ccc(Br)cc2nc1Cl" , report its selectivity ratio.
9.2

Using the record for "CS(=O)(=O)c1nc2ccc(Cl)cc2nc1Cl" , report its selectivity ratio.
25.9

Using the record for "CCCCNc1nc2ccccc2nc1S(C)(=O)=O" , report its selectivity ratio.
5.5

###

Assay: Selectivity ratio of CC50 for mouse J774A1 cells to IC50 for promastigote stage of Leishmania amazonensis WHOM/BR/75/JOSEFA
Type: ADME, cell-based, J774.A1
Conditions: read-out: Ratio CC50/IC50
Measured selectivity ratio by item
Reply: number alone, nothing else.

Using the record for "COc1ccc2nc(SC)c(NCC(C)C)nc2c1" , report its selectivity ratio.
4.7

Using the record for "Cc1ccc(-c2nc3cc(Cl)c(Cl)cc3nc2-c2ccccc2)cc1" , report its selectivity ratio.
3.2

Using the record for "CSC(=C[N+](=O)[O-])SC" , report its selectivity ratio.
6

Using the record for "c1ccc(-c2nc3ccccc3nc2-c2ccc(OCCN3CCOCC3)cc2)cc1" , report its selectivity ratio.
8.7

###

Assay: Selectivity ratio of CC50 to IC50 for promastigote stage of Leishmania amazonensis WHOM/BR/75/JOSEFA
Set-up: reference not given here
Measured selectivity ratio by item
Reply: number alone, nothing else.

Using the record for "CCCCNc1nc2ccccc2nc1S(C)(=O)=O" , report its selectivity ratio.
11.4

Using the record for "Clc1ccc2nc(-c3ccccc3)c(-c3ccccc3)nc2c1" , report its selectivity ratio.
6.6

Using the record for "COc1ccc2nc(NCCO)c(SC)nc2c1" , report its selectivity ratio.
5

Using the record for "Clc1cc2nc(-c3ccccc3)c(-c3ccccc3)nc2cc1Cl" , report its selectivity ratio.
38.5

Using the record for "CCCCNc1nc2ccccc2nc1SC" , report its selectivity ratio.
1.9

More entries:
Using the record for "COc1ccc2nc(-c3ccccc3)c(NCCO)nc2c1" , report its selectivity ratio.
4.8

Using the record for "Cc1ccc(-c2nc3cc(Cl)c(Cl)cc3nc2-c2ccccc2)cc1" , report its selectivity ratio.
3.2

Using the record for "CCCCNc1nc2ccc(OC)cc2nc1NCCCC" , report its selectivity ratio.
4.3

Using the record for "CS(=O)(=O)c1nc2ccc(Br)cc2nc1Cl" , report its selectivity ratio.
71.8

Using the record for "c1ccc(-c2nc3ccccc3nc2-c2ccc(OCCN3CCOCC3)cc2)cc1" , report its selectivity ratio.
8.7

Using the record for "COc1ccc2nc(SC)c(NCC(C)C)nc2c1" , report its selectivity ratio.
4.7

Using the record for COc1ccc2nc(NC3CCCCC3)c([S+](C)[O-])nc2c1 (stereo not drawn) , report its selectivity ratio.
8

Using the record for "CS/C(=C/[N+](=O)[O-])Nc1ccc(Cl)cc1" , report its selectivity ratio.
6.9

###

Test: Selectivity ratio of CC50 for monkey LLC-MK2 cells to EC50 for trypomastigote stage of Trypanosoma cruzi Y
Format: ADME, cell-based
Details: read-out: Ratio CC50/EC50
Measured selectivity ratio by item
Reply: number alone, nothing else.

Using the record for "CS(=O)(=O)c1nc2ccc(Br)cc2nc1Cl" , report its selectivity ratio.
7

Using the record for "CCCCNc1nc2cc(OC)ccc2nc1S(C)(=O)=O" , report its selectivity ratio.
2.1

Using the record for C[S+]([O-])c1nc2ccc(Cl)cc2nc1NC1CCCCC1 (stereo unspecified) , report its selectivity ratio.
6.2

Using the record for "CS(=O)(=O)c1nc2ccccc2nc1NCCO" , report its selectivity ratio.
0.8

Using the record for "CS(=O)(=O)c1nc2ccc(Cl)cc2nc1NC1CCCCC1" , report its selectivity ratio.
19.6

More entries:
Using the record for "COc1ccc2nc(NCC(C)C)c(S(C)(=O)=O)nc2c1" , report its selectivity ratio.
6
